Value source: ChEMBL document CHEMBL5370606

Molecular target: Potassium voltage-gated channel subfamily A member 3 (Homo sapiens, UniProt P22001)
Sequence (P22001 whole entry): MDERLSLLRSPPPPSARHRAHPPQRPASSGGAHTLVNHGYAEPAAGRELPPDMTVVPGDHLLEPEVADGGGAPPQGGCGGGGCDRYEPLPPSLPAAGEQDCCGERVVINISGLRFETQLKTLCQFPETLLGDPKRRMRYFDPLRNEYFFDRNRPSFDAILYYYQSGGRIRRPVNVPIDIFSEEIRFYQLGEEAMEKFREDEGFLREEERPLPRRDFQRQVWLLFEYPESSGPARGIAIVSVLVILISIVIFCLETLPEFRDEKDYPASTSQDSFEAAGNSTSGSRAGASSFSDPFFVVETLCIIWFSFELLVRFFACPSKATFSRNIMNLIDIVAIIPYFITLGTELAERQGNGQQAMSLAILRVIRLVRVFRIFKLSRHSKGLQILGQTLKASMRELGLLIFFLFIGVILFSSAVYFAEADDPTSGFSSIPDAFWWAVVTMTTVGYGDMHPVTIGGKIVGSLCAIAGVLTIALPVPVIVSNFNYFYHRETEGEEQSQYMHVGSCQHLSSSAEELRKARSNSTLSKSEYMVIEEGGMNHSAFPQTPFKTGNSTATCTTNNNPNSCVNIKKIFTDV
Experiment: Inhibition of Kv1.3 (unknown origin) expressed in HEK293 cells at 30 uM at -90 mV holding potential by automated patch-clamp technique relative to control
Format: cell-based
Tick 1 if inhibition is 40% or greater. Tick 0 if inhibition is less than 40%.

Some entries whose results are on file:
CC(=O)O[C@]12C[C@@H](C)[C@H](O)[C@@H]1/C=C(\C)[C@H](O)C[C@H]1[C@@H](/C=C(\C)C2=O)C1(C)C    1
Fc1ccc([C@@H]2CCNC[C@H]2COc2ccc3c(c2)OCO3)cc1    0
CCC/C=C\C=C\C(=O)O[C@@H]1C[C@H]2[C@@H](/C=C(\C)C(=O)[C@@]3(OC(C)=O)C[C@@H](C)[C@H](O)[C@@H]3/C=C/1C)C2(C)C    1
CC1=C2C=C3CC[C@@H]4C(C)(C)[C@H](O)CC[C@@]4(C)[C@]3(O)C[C@H]2OC1=O    0
C=C1C[C@@]23CC[C@@H]4C(C)(C)C(=O)CC[C@@]4(C)[C@@H]2C[C@@H]1[C@@H](O)C3=O    0

Hi team, for CC(=O)O[C@]12C[C@@H](C)[C@H](O)[C@@H]1/C=C(\C)[C@H](O)C[C@@H]1[C@@H](/C=C(\C)C2=O)C1(C)C , is the recorded inhibition at or above 40%?
1

Hi team, for CC1(C)[C@H](O)CC[C@]2(C)[C@@H]1CC[C@@]13CC[C@@H](C[C@H]12)[C@](O)(CO)C3 , is the recorded inhibition at or above 40%?
0

Hi team, for CC(=O)O[C@]12C[C@@H](C)[C@H](OC(=O)c3ccccc3)[C@@H]1/C=C(\C)[C@H](O)C[C@H]1[C@@H](/C=C(\C)C2=O)C1(C)C , is the recorded inhibition at or above 40%?
1

---

Target: UniProt P22001
Experiment: Inhibition of Kv1.3 (unknown origin) expressed in HEK293 cells at -90 mV holding potential by automated patch-clamp technique
MEASUREMENT_LABEL: pIC50
One number for each entry, as −log10 of the molar value.

Quickly give me recorded pIC50 for CC(=O)O[C@]12C[C@@H](C)[C@H](OC(=O)c3ccccc3)[C@@H]1/C=C(\C)[C@H](O)C[C@H]1[C@@H](/C=C(\C)C2=O)C1(C)C
5.37

---

Target: Potassium voltage-gated channel subfamily A member 3 (Homo sapiens, UniProt P22001)
Assay: Inhibition of Kv1.3 (unknown origin) expressed in HEK293 cells at 30 uM at -90 mV holding potential by automated patch-clamp technique relative to control
Type: cell-based
Tick criterion met if inhibition is 10% or greater. Tick criterion not met if inhibition is less than 10%.

CC1(C)C(=O)CC[C@]2(C)[C@@H]1CC[C@@]13CC[C@@H](C[C@H]12)[C@](O)(CO)C3    criterion not met
CC1=C2C=C3CC[C@@H]4C(C)(C)C(=O)[C@H](O)[C@@]4(C)[C@@H]3C[C@H]2OC1=O    criterion met
C=C1C[C@@]23CC[C@@H]4C(C)(C)[C@H](O)CC[C@@]4(C)[C@@H]2C[C@@H]1[C@@H](O)C3=O    criterion met
COC(=O)CCC(=O)O[C@@H]1C[C@H]2[C@@H](/C=C(\C)C(=O)[C@@]3(OC(C)=O)C[C@@H](C)[C@H](O)[C@@H]3/C=C/1C)C2(C)C    criterion met

Turning now to a further compound:
Hi team, for CC(=O)O[C@]12C[C@@H](C)[C@H](O)[C@@H]1[C@H]1O[C@]1(C)[C@H](O)C[C@H]1[C@@H](/C=C(\C)C2=O)C1(C)C , is the recorded inhibition at or above 10%?
criterion met
